Test system: Saccharomyces cerevisiae
Assay method text: Minimum Fungicidal Concentration (MFC)
Assay type: cell-based
Cond: Table 2, 1 strain tested more than once, 24 hr
Numbered stars: 1 amine (or outer) side, 2 acyl side, 3 side chain; on linkers, the order of the positions; unused ones are H or OH. Bridge positions count the residues as written; N and C are the ends. Square brackets hold non-standard residues; d marks the D form. Peptide text beside a SMILES is read from it. * marks the point of attachment. ξ: configuration not given here. Asp(3S-OH) = N[C@H](C(=O)O)[C@H](O)C(=O)O; Thr(4-Cl) = N[C@H](C(=O)O)[C@H](O)CCl; ξAsp(3ξ-OH) = NC(C(=O)O)C(O)C(=O)O; X3 = O=C(C(N[*:1])C(O)CCl)[*:2]; X1 = CCCCCCCCC[C@@H](O)CC(=O)*; X2 = CCCCCCCCCCCC(O)CC(=O)*; dDab = NCC[C@@H](N)C(=O)O; Dab = NCC[CH](N)C(=O)O; Orn = NCCC[CH](N)C(=O)O; hSer = N[CH](CCO)C(=O)O; Dhb = C/C=C(\N)C(=O)O
Test readout: MFC (μg/ml) range (µg/mL)
Express it in µg/mL; write the number only.

Kindly indicate its recorded MFC (μg/ml) range. Item: C/C=C1\NC(=O)C(C(C)O)NC(=O)C(CCCN)NC(=O)C(CCO)NC(=O)C(CCN)NC(=O)C(CCN)NC(=O)C(NC(=O)CC(O)CCCCCCCCCCC)COC(=O)C(C(O)CCl)NC(=O)C(C(O)C(=O)O)NC1=O (centres unmarked) [SS-A, syringostatin-A] (X2-S[Dab][Dab][hSer][Orn]T[Dhb][ξAsp(3ξ-OH)][X3]; ester 1-C; configuration not given here) 5

Kindly indicate its recorded MFC (μg/ml) range. Item: C/C=C1\NC(=O)[C@H](Cc2ccccc2)NC(=O)[C@H](CCCN=C(N)N)NC(=O)[C@@H](CCN)NC(=O)[C@H](CCN)NC(=O)[C@@H](CO)NC(=O)[C@@H](NC(=O)C[C@H](O)CCCCCCCCC)COC(=O)[C@H]([C@H](O)CCl)NC(=O)[C@H]([C@H](O)C(=O)O)NC1=O [SR-E, Syringomycin-E] (X1-S[dS][Dab][dDab]RF[Dhb][Asp(3S-OH)][Thr(4-Cl)]; ester 1-C) 2.5

Kindly indicate its recorded MFC (μg/ml) range. Item: C[C@@H]1[C@H](O)[C@@H](C)/C=C/C=C/C=C/C=C/C=C/C=C/C=C/[C@H](O[C@@H]2O[C@H](C)[C@@H](O)[C@H](N)[C@@H]2O)C[C@@H]2O[C@](O)(C[C@@H](O)C[C@@H](O)[C@H](O)CC[C@@H](O)C[C@@H](O)CC(=O)O[C@H]1C)C[C@H](O)[C@H]2C(=O)O [AmB, amphotericin B, reference compound] 1.25

Every entry's value here was drawn from patent US5830855A.
